For each of the molecules below, state its viability at 24 h.
PROTOCOL DETAILS: In vitro transfection of cells with eGFP-mRNA lipid nanoparticle (LNP preparation), fluorescence imaging and flow cytometry
Assay type: cell-based, mouse
REPORTED CONDITIONS: mouse, dc2.4 cells, 200 ng of mRNA per well, after 24 hours; read-out: Cell viability, %
The figure you give is taken to be in %; do not add the unit.

[Q] Give the measured viability at 24 h of CCCCCCCCCCCOC(=O)CCCCCCCCCCCN(CCO)CCCN(CCCCCCCCCCCC(=O)OCCCCCCCCCCC)CCCCCCCCCCCC(=O)OCCCCCCCCCCC .
[A] 87.5

[Q] Could you tell me which viability at 24 h is on file for CCCCCCCCCCCOC(=O)CCN(CCCO)CCCN(CCC(=O)OCCCCCCCCCCC)CCC(=O)OCCCCCCCCCCC ?
[A] 94.9

[Q] What measured viability at 24 h goes with CCCCC/C=C\C/C=C\CCCCCCCCOC(=O)CCCCCCCN(CCO)CCCN(CCCCCCCC(=O)OCCCCCCCC/C=C\C/C=C\CCCCC)CCCCCCCC(=O)OCCCCCCCC/C=C\C/C=C\CCCCC ?
[A] 76

###

PROTOCOL DETAILS: Size and polydispersity index (PDI) of the lipid nanoparticle by dynamic light scattering
Type: physicochemical
REPORTED CONDITIONS: LNP encapsulating eGFP mRNA, ionizable lipid/DOPE/cholesterol/DMG-PEG2000 50/10/48.25/1.25 mol%, N/P 12; in nm (unit assumed)
Could you please report measured Particle size for the items listed next?
Response field accepts a number only; no unit should be typed.

[Q] Item CCCCCCCCCCCCCOC(=O)CCN(CCCO)CCCN(CCC(=O)OCCCCCCCCCCCCC)CCC(=O)OCCCCCCCCCCCCC [Example 71] has what recorded Particle size?
[A] 98.30

[Q] Which Particle size value is on record for CCCCCCCCCCCCCOC(=O)CN(CCCO)CCCN(CC(=O)OCCCCCCCCCCCCC)CC(=O)OCCCCCCCCCCCCC [Example 77] ?
[A] 99.78

[Q] Value lookup for Particle size; key = CCCCCCCCCCCCOC(=O)CCCN(CCCO)CCCCN(CCCC(=O)OCCCCCCCCCCCC)CCCC(=O)OCCCCCCCCCCCC [Example 103]
[A] 94.10

[Q] Name the recorded Particle size for CCCCCCCCCCCOC(=O)CN(CCCCO)CCCN(CC(=O)OCCCCCCCCCCC)CC(=O)OCCCCCCCCCCC [Example 75] .
[A] 99.22

[Q] Query (compound): CCCCCCCCCCCOC(=O)CCCN(CCO)CCCN(CCCC(=O)OCCCCCCCCCCC)CCCC(=O)OCCCCCCCCCCC [Example 12] ; field requested: Particle size
[A] 88.51

[Q] What value of Particle size has been reported for the following compound? CCCCCCCCCCCOC(=O)CCCN(CCO)CCCCN(CCCC(=O)OCCCCCCCCCCC)CCCC(=O)OCCCCCCCCCCC [Example 87]
[A] 72.55

[Q] Item under review: CCCCCCCCCCCCOC(=O)CCCCCN(CCCO)CCCN(CCCCCC(=O)OCCCCCCCCCCCC)CCCCCC(=O)OCCCCCCCCCCCC [Example 45] . Reported Particle size?
[A] 84.66

[Q] Recorded Particle size for CCCCCCCCCCCOC(=O)CCCCCCCN(CCO)CCCN(CCCCCCCC(=O)OCCCCCCCCCCC)CCCCCCCC(=O)OCCCCCCCCCCC [Example 1] , please?
[A] 59.34

[Q] # lookup: Particle size of CCCCCCCCCCCCCCOC(=O)CCCCCN(CCO)CCCN(CCCCCC(=O)OCCCCCCCCCCCCCC)CCCCCC(=O)OCCCCCCCCCCCCCC [Example 53]
[A] 91.34

[Q] // returns reported Particle size for input CCCCCCCCCCCOC(=O)CCCCCCN(CCO)CCCN(CCCCCCC(=O)OCCCCCCCCCCC)CCCCCCC(=O)OCCCCCCCCCCC [Example 32]
[A] 83.34

[Q] Using the record for CCCCCCCCCCCOC(=O)CCCCCN(CCCO)CCCN(CCCCCC(=O)OCCCCCCCCCCC)CCCCCC(=O)OCCCCCCCCCCC [Example 27] , report its Particle size.
[A] 88.43

[Q] If you can, please state the reported Particle size value of CCCCCCCCCCOC(=O)CCCN(CCCO)CCCN(CCCC(=O)OCCCCCCCCCC)CCCC(=O)OCCCCCCCCCC [Example 113] .
[A] 88.62

[Q] Requested field: Particle size. Item: CC(C)=CCC/C(C)=C/COC(=O)CCCCCCCN(CCO)CCCN(CCCCCCCC(=O)OC/C=C(\C)CCC=C(C)C)CCCCCCCC(=O)OC/C=C(\C)CCC=C(C)C [Example 3]
[A] 92.13

[Q] Bench note: what Particle size did CCCCCCCCCCOC(=O)CCCN(CCO)CCCN(CCCC(=O)OCCCCCCCCCC)CCCC(=O)OCCCCCCCCCC [Example 93] show?
[A] 98.21

[Q] I have this compound here, CCCCCCCCCCCCCOC(=O)CN(CCCCO)CCCN(CC(=O)OCCCCCCCCCCCCC)CC(=O)OCCCCCCCCCCCCC [Example 78] , and I need its recorded Particle size.
[A] 99.86

[Q] What measured Particle size goes with CC/C=C\COC(=O)CCCCCCCN(CCO)CCCN(CCCCCCCC(=O)OC/C=C\CC)CCCCCCCC(=O)OC/C=C\CC [Example 10] ?
[A] 90.73

[Q] Any idea what Particle size was measured for CCCCCCCCCCCCOC(=O)CCCN(CCCO)CCCN(CCCC(=O)OCCCCCCCCCCCC)CCCC(=O)OCCCCCCCCCCCC [Example 112] ?
[A] 89.42

[Q] // lookup Particle size for CCCCCCCCCCCCCOC(=O)CCCCCCN(CCCCO)CCCN(CCCCCCC(=O)OCCCCCCCCCCCCC)CCCCCCC(=O)OCCCCCCCCCCCCC [Example 35]
[A] 92.18

[Q] I would be grateful if you could share the reported Particle size for CCCCCCCCCCCOC(=O)CCCCCCN(CCCO)CCCN(CCCCCCC(=O)OCCCCCCCCCCC)CCCCCCC(=O)OCCCCCCCCCCC [Example 36] .
[A] 89.30

[Q] Report Particle size for CCCCCCCCCCCOC(=O)CCCCCCCCCN(CCO)CCCN(CCCCCCCCCC(=O)OCCCCCCCCCCC)CCCCCCCCCC(=O)OCCCCCCCCCCC [Example 14] please.
[A] 98.45

[Q] Could you share which Particle size value was measured for CCCCCCCCCCCOC(=O)CCCN(CCCO)CCCCN(CCCC(=O)OCCCCCCCCCCC)CCCC(=O)OCCCCCCCCCCC [Example 82] ?
[A] 99.74

[Q] What measured Particle size goes with CCCCCCCCCCCOC(=O)CCCCN(CCO)CCCN(CCCCC(=O)OCCCCCCCCCCC)CCCCC(=O)OCCCCCCCCCCC [Example 38] ?
[A] 65.19

[Q] # Particle size lookup, item CCCCCCCCCCCCCOC(=O)CCCCCN(CCCCO)CCCN(CCCCCC(=O)OCCCCCCCCCCCCC)CCCCCC(=O)OCCCCCCCCCCCCC [Example 31]
[A] 84.05

[Q] Could you share which Particle size value was measured for CCCCCCCCCCCOC(=O)CCCCCCCN(CCCCCCCC(=O)OCCCCCCCCCCC)CCCN(CCCO)CCCN(CCCCCCCC(=O)OCCCCCCCCCCC)CCCCCCCC(=O)OCCCCCCCCCCC [Example 98] ?
[A] 89.51

[Q] Return reported Particle size; argument: CCCCCCCCCCCCCOC(=O)CCCCN(CCCCO)CCCN(CCCCC(=O)OCCCCCCCCCCCCC)CCCCC(=O)OCCCCCCCCCCCCC [Example 41]
[A] 71.17

[Q] Returns the measured Particle size for the input compound. Input: CCCCCCCCCCCCOC(=O)CCCCCN(CCCCO)CCCN(CCCCCC(=O)OCCCCCCCCCCCC)CCCCCC(=O)OCCCCCCCCCCCC [Example 46]
[A] 72.75

###

PROTOCOL DETAILS: Size and polydispersity index (PDI) of the lipid nanoparticle by dynamic light scattering
Assay type: physicochemical
REPORTED CONDITIONS: LNP encapsulating eGFP mRNA, ionizable lipid/DOPE/cholesterol/DMG-PEG2000 50/10/48.25/1.25 mol%, N/P 12; in nm (unit assumed)
MEASURED ATTRIBUTE: Particle size

[Q] // returns reported Particle size for input CCCCCCCCCCCCCOC(=O)CCCCN(CCO)CCCN(CCCCC(=O)OCCCCCCCCCCCCC)CCCCC(=O)OCCCCCCCCCCCCC
[A] 89.31

[Q] Query (compound): CCCCCCCCCCCCOC(=O)CCCN(CCCO)CCCCN(CCCC(=O)OCCCCCCCCCCCC)CCCC(=O)OCCCCCCCCCCCC [Example 84] ; field requested: Particle size
[A] 89.72

[Q] Recorded Particle size for CCCCCCCCCCOC(=O)CCCN(CCCO)CCCCN(CCCC(=O)OCCCCCCCCCC)CCCC(=O)OCCCCCCCCCC , please?
[A] 88.62

[Q] Quick one: Particle size for CCCCCCCCCCCCCOC(=O)CCCCN(CCCO)CCCN(CCCCC(=O)OCCCCCCCCCCCCC)CCCCC(=O)OCCCCCCCCCCCCC ?
[A] 63.23

[Q] So what does the record say about Particle size for CCCCCCCCCCCCCOC(=O)CCCCCN(CCO)CCCN(CCCCCC(=O)OCCCCCCCCCCCCC)CCCCCC(=O)OCCCCCCCCCCCCC ?
[A] 95.80

[Q] What measured Particle size goes with CCCCC/C=C\C/C=C\CCCCCCCCOC(=O)CCCN(CCO)CCCN(CCCC(=O)OCCCCCCCC/C=C\C/C=C\CCCCC)CCCC(=O)OCCCCCCCC/C=C\C/C=C\CCCCC ?
[A] 99.14
